Hey, just so you know, these numbers are from ChEMBL document CHEMBL4627307.

# system: UniProt:P08236
# Sequence (P08236 whole entry): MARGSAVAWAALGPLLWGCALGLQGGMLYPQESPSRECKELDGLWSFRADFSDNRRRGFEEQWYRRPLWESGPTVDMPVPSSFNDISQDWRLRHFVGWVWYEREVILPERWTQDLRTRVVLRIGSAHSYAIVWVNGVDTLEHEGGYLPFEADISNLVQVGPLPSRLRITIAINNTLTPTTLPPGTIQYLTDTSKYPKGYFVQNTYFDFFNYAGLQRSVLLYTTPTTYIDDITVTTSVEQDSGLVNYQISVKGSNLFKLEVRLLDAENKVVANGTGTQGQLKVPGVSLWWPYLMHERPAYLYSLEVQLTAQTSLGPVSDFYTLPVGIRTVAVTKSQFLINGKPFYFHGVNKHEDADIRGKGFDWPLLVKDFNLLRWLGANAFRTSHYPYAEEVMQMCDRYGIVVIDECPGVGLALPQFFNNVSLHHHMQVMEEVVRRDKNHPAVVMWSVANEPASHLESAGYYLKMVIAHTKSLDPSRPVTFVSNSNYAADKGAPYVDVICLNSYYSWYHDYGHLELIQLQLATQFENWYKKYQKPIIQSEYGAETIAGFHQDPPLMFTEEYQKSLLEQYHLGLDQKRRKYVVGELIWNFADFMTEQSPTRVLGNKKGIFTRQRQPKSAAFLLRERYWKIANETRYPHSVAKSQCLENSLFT
assay.metric: pIC50
Scale note: pIC50 = -log10(concentration in M).

Lab note: need pIC50 with UniProt:P08236 for entry CCN(CC)C(=O)C1=C(C)N=C(S)NC1c1cccs1 (stereo unspecified) , please look it up.
6.46
